# Protocol summary: Volume of distribution at steady state in CD rat at 1 mg/kg, iv and 1 mg/kg, po
# Format: ADME, organism-based
# Measurement context: in vivo, read-out: Vdss
Kindly state Vd for each of the entries shown.
Quick reminder: number only, in L/kg, skip the unit.

[in] Requested field: Vd. Item: COc1cccc2c1c(NS(=O)(=O)c1ccc(Cl)s1)nn2Cc1cccc(CNC(=O)C(C)(C)O)c1
[out] 1.9

[in] Further, for COc1cccc2c1c(NS(=O)(=O)c1ccc(Cl)s1)nn2Cc1cccc(CNC(C)=O)c1 ?
[out] 0.57

###

# System: C-C chemokine receptor type 4 (Homo sapiens, UniProt P51679)
# Sequence (P51679 whole entry): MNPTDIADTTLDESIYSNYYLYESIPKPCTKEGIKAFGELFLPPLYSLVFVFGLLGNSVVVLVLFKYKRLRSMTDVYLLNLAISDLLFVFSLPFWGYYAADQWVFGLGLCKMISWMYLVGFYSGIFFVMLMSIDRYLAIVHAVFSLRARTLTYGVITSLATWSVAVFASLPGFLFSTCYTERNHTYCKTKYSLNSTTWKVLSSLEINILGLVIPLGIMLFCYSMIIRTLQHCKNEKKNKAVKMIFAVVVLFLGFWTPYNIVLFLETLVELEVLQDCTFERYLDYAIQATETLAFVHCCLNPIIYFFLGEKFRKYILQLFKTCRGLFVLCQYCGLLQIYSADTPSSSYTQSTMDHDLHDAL
# Protocol summary: Antagonist activity at human CCR4 in human whole blood assessed as inhibition of TARC-induced CD4+ CCR4+lymphocyte chemotaxis measuring F-actin content
# Assay type: functional, tissue-based
# Measurement context: read-out: pA2 (converted)
Test readout: Kb (µM)
Quick reminder: number only, in µM, skip the unit.

[in] Requested field: Kb. Item: COc1ccc(Cn2nc(NS(=O)(=O)c3ccc(Cl)s3)c3c(OC)cccc32)cc1OC
[out] 2.51

[in] Further, for COc1cccc2c1c(NS(=O)(=O)c1ccc(Cl)s1)nn2Cc1cccc(CNC(=O)C(C)(C)O)c1 ?
[out] 0.631

[in] Further, for COc1cccc2c1c(NS(=O)(=O)c1ccc(Cl)s1)nn2Cc1cccc(CN)c1 ?
[out] 1

[in] Further, for COc1cccc2c1c(NS(=O)(=O)c1ccc(Cl)s1)nn2Cc1cccc(CNC(=O)C(C)O)c1 (stereo not given) ?
[out] 0.631

[in] Further, for COc1cccc2c1c(NS(=O)(=O)c1ccc(Cl)s1)nn2Cc1ccccc1 ?
[out] 6.31
